Provenance of the data: the NIST ThermoML archive (doi:10.1021/je900757k)

Listed next: entries and their corresponding isobaric coefficient of expansion.
Assay: isobaric coefficient of expansion
Conditions: 288.15 K; 40000 kPa; Liquid; DSC

Example entries and their recorded answers appear below.
| Compound | isobaric coefficient of expansion |
| --- | --- |
| CCCCCCCCCC [decane] | 0.000823 1/K |
| ClC(Cl)(Cl)Cl [tetrachloromethane] | 0.000985 1/K |
| CCCCCCCCCCCC [dodecane] | 0.00079 1/K |
| CCCCCCCCC [nonane] | 0.000853 1/K |
| CCCCCCCCCCC [undecane] | 0.000801 1/K |

We next turn to a different compound, shown below.
isobaric coefficient of expansion reported for this compound CCCCCCCCCCCCC [tridecane] : 0.000772 1/K
